Target: Signal transducer and activator of transcription 3 (Homo sapiens, UniProt P40763)
Sequence (P40763 whole entry): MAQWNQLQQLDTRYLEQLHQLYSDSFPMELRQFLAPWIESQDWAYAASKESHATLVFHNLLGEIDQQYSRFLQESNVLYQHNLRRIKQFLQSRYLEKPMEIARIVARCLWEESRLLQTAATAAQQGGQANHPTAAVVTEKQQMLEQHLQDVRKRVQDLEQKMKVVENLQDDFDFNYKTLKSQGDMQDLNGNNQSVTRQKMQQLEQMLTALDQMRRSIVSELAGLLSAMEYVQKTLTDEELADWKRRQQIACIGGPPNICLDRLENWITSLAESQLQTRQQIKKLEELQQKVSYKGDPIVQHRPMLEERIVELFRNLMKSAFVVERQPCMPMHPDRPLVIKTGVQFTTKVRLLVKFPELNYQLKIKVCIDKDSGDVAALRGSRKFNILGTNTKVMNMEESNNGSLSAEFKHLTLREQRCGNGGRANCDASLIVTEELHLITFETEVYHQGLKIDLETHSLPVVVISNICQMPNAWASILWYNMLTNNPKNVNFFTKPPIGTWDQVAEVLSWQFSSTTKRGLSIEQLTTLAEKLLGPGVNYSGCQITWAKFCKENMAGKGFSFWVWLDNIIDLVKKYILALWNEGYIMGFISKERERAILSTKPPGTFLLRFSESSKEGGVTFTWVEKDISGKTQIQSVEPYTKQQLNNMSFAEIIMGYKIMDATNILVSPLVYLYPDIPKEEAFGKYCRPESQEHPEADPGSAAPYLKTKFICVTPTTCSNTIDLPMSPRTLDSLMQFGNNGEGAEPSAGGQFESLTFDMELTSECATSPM
Assay: Inhibition of Stat3 by fluorescence polarization assay
readout_name: IC50

| smiles_text | readout_name | result |
| --- | --- | --- |
| NC(=O)CC[C@H](NC(=O)[C@@H]1CC[C@H]2CC[C@H](NC(=O)/C=C/c3ccc(OP(=O)(O)O)cc3)C(=O)N21)C(=O)NCc1ccccc1 | IC50 | 45.7 µM |
| NC(=O)CC[C@H](NC(=O)[C@H]1CC[C@H]2CC[C@H](NC(=O)/C=C/c3ccc(OP(=O)(O)O)cc3)C(=O)N21)C(=O)NCc1ccccc1 | IC50 | 59.8 µM |
| NC(=O)[C@@H]1Cc2cccc3c2N1C(=O)[C@@H](NC(=O)/C=C/c1ccc(OP(=O)(O)O)cc1)CC3 | IC50 | 35.6 µM |

* * *

Biological target: Signal transducer and activator of transcription 3 (Homo sapiens, UniProt P40763)
pIC50: −log10 of the molar value. Peptide text beside a SMILES is read from it. * marks the point of attachment. X7 = O=C(Cc1c[nH]c2ccc(OP(=O)(O)O)cc12)*

| molecule | study_system | op | pIC50 |
| --- | --- | --- | --- |
| C[C@H](NC(=O)[C@@H]1Cc2cccc3c2N1C(=O)[C@@H](NC(=O)/C=C/c1ccc(OP(=O)(O)O)cc1)CC3)C(N)=O | Signal transducer and activator of transcription 3 (Homo sapiens, UniProt P40763) | = | 4.60 |
| NC(=O)C1CCN(C(=O)[C@@H]2Cc3cccc4c3N2C(=O)[C@@H](NC(=O)/C=C/c2ccc(OP(=O)(O)O)cc2)CC4)C1 (some centres not stated) | Signal transducer and activator of transcription 3 (Homo sapiens, UniProt P40763) | = | 6.23 |
| CCCC[C@H](NC(=O)[C@@H]1Cc2cccc3c2N1C(=O)[C@@H](NC(=O)/C=C/c1ccc(OP(=O)(O)O)cc1)CC3)C(N)=O | Signal transducer and activator of transcription 3 (Homo sapiens, UniProt P40763) | = | 4.72 |
| CC(C)C[C@H](NC(=O)Cc1c[nH]c2ccc(OP(=O)(O)O)cc12)C(=O)N1CCC[C@H]1C(=O)N[C@@H](CCC(N)=O)C(=O)N[C@H](C(N)=O)[C@@H](C)O (X7-LPQT-NH2) | Signal transducer and activator of transcription 3 (Homo sapiens, UniProt P40763) | < | 4.00 |
| COC(=O)[C@H](CCC(N)=O)NC(=O)[C@@H]1Cc2cccc3c2N1C(=O)[C@@H](NC(=O)/C=C/c1ccc(OP(=O)(O)O)cc1)CC3 | Signal transducer and activator of transcription 3 (Homo sapiens, UniProt P40763) | = | 6.85 |
| NC(=O)CC[C@H](NC(=O)[C@@H]1Cc2cccc3c2N1C(=O)[C@@H](NC(=O)/C=C/c1ccc(OP(=O)(O)O)cc1)CC3)C(=O)O | Signal transducer and activator of transcription 3 (Homo sapiens, UniProt P40763) | = | 6.44 |
| NC(=O)CC[C@H](NC(=O)[C@@H]1Cc2cccc3c2N1C(=O)[C@@H](NC(=O)/C=C/c1ccc(OP(=O)(O)O)cc1)CC3)C(N)=O | Signal transducer and activator of transcription 3 (Homo sapiens, UniProt P40763) | = | 6.63 |

* * *

Item-by-item account of IC50
Target: Signal transducer and activator of transcription 3 (Homo sapiens, UniProt P40763)
Square brackets hold non-standard residues; d marks the D form. Peptide text beside a SMILES is read from it. pY = N[C@@H](Cc1ccc(OP(=O)(O)O)cc1)C(=O)O; aThr = C[C@H](O)[C@H](N)C(=O)O

| molecule | IC50 [nM] |
| --- | --- |
| O=C(O)CCCNC(=O)[C@@H]1Cc2cccc3c2N1C(=O)[C@@H](NC(=O)/C=C/c1ccc(OP(=O)(O)O)cc1)CC3 | 815 |
| CS(=O)(=O)CC[C@H](NC(=O)[C@@H]1Cc2cccc3c2N1C(=O)[C@@H](NC(=O)/C=C/c1ccc(OP(=O)(O)O)cc1)CC3)C(N)=O | 7030 |
| CC(C)C[C@H](NC(=O)/C=C/c1ccc(OP(=O)(O)O)cc1)C(=O)N1CCC[C@H]1C(=O)N[C@@H](CCC(N)=O)C(=O)NCc1ccccc1 | 138 |
| NC(=O)CC[C@H](NC(=O)[C@@H]1Cc2cccc3c2N1C(=O)[C@@H](NC(=O)/C=C/c1ccc(OP(=O)(O)O)cc1)C=C3)C(=O)NCc1ccccc1 | 195 |
| CC(=O)N[C@@H](Cc1ccc(OP(=O)(O)O)cc1)C(=O)N[C@@H](CC(C)C)C(=O)N1CCC[C@H]1C(=O)N[C@@H](CCC(N)=O)C(=O)N[C@H](C(N)=O)[C@H](C)O (Ac-[pY]LPQ[aThr]-NH2) | 739 |
| NC(=O)CC[C@H](NC(=O)[C@@H]1Cc2cccc3c2N1C(=O)[C@@H](NC(=O)c1cc2cc(OP(=O)(O)O)ccc2[nH]1)CC3)C(=O)NCc1ccccc1 | 190 |
